# subject.of.test: hFASN enzyme (full length) (Homo sapiens)
# Construct: 10 μL hFASN enzyme (full length, 300 ng, purified in house); made in house
# procedure.summary: Fatty Acid Synthase (FASN) inhibition scintillation proximity assay
# Assay type: biochemical
# condition.details: read-out: Human FASN pIC50 (converted)
# Experimental: In this assay, inhibition of FASN activity is measured using ^3H-acetyl-CoA and malonyl-CoA as substrates. ^3H-Acetyl CoA is converted to ^3H-palmitate through a series of reactions by the FASN protein, which contains 7 functional domains and carries out 7 enzymatic reactions to ultimately produce ^3H-palmitate. The assay principle is based upon the fact that ^3H-acetyl-CoA is hydrophilic and the end product, ^3H-palmitate is hydrophobic. […]
property.name: IC50 (nM)

[P] Cn1ncc2cc(-c3ccc(C4=NC5(CCN(C(=O)C6CC6)CC5)C(=O)N4C[C@@H]4CCN(C(=O)C5CC5)C4)cc3)ccc21
[Q] Cc1cc(-c2ccc3cc(C#N)ccc3c2)ccc1C1=NC2(CC2)C(=O)N1CC1CN(C(=O)C2(F)CC2)C1
I'm curious whether P or Q has the smaller IC50 number. Which is it? Kindly give the label for the entry you pick.
Q

* * *

# System: LNCaP-Vancouver prostate cells
# procedure.summary: In vitro LNCaP Vancouver prostate cell proliferation assay in lipid reduced medium
# Format: cell-based
# condition.details: read-out: pIC50 LNCaP_Vancouver prostate cell (converted)
# Protocol: LNCaP-Vancouver prostate cells were obtained from the Vancouver Prostate Cancer Centre. Cells were maintained in RPMI-1640, 10% Fetal Calf Serum (FCS, Hyclone), 2 mM glutamine and 50 μg/ml Gentamicin. […] pIC50 values were calculated as follows. […]
property.name: IC50 (nM)

Past entries and their recorded results:
Cn1ncc2cc(-c3ccc(C4=NC5(CC5)C(=O)N4C[C@@H]4CCN(C(=O)C5CCO5)C4)cc3)ccc21 (stereo partly shown); 407
O=C(C1CC1)N1CC(CN2C(=O)C3(CC3)N=C2c2ccc(-c3cnc4ccccc4c3)cc2)C1; 2690
Cc1cc2cc(-c3ccc(C4=NC5(CC5)C(=O)N4C[C@@H]4CCN(C(=O)C5CC5)C4)c(F)c3)ccc2s1; 832

[1] Cc1cc(-c2ccc3[nH]ncc3c2)ccc1C1=NC2(CC2)C(=O)N1C[C@@H]1CCN(C(=O)C2CC2)C1
[2] COC(=O)N1CC2(C1)N=C(c1ccc(-c3ccc4cccnc4c3)cc1)N(C[C@@H]1CCN(C(=O)C3CC3)C1)C2=O
Identify the entry with the smaller IC50: 1 or 2 . Bench note: the answer is the label of the chosen record.
1

* * *

# subject.of.test: hFASN enzyme (full length) (Homo sapiens, UniProt P49327)
# Construct: 10 μL hFASN enzyme (full length, 300 ng, purified in house); made in house
# Sequence (P49327 whole entry): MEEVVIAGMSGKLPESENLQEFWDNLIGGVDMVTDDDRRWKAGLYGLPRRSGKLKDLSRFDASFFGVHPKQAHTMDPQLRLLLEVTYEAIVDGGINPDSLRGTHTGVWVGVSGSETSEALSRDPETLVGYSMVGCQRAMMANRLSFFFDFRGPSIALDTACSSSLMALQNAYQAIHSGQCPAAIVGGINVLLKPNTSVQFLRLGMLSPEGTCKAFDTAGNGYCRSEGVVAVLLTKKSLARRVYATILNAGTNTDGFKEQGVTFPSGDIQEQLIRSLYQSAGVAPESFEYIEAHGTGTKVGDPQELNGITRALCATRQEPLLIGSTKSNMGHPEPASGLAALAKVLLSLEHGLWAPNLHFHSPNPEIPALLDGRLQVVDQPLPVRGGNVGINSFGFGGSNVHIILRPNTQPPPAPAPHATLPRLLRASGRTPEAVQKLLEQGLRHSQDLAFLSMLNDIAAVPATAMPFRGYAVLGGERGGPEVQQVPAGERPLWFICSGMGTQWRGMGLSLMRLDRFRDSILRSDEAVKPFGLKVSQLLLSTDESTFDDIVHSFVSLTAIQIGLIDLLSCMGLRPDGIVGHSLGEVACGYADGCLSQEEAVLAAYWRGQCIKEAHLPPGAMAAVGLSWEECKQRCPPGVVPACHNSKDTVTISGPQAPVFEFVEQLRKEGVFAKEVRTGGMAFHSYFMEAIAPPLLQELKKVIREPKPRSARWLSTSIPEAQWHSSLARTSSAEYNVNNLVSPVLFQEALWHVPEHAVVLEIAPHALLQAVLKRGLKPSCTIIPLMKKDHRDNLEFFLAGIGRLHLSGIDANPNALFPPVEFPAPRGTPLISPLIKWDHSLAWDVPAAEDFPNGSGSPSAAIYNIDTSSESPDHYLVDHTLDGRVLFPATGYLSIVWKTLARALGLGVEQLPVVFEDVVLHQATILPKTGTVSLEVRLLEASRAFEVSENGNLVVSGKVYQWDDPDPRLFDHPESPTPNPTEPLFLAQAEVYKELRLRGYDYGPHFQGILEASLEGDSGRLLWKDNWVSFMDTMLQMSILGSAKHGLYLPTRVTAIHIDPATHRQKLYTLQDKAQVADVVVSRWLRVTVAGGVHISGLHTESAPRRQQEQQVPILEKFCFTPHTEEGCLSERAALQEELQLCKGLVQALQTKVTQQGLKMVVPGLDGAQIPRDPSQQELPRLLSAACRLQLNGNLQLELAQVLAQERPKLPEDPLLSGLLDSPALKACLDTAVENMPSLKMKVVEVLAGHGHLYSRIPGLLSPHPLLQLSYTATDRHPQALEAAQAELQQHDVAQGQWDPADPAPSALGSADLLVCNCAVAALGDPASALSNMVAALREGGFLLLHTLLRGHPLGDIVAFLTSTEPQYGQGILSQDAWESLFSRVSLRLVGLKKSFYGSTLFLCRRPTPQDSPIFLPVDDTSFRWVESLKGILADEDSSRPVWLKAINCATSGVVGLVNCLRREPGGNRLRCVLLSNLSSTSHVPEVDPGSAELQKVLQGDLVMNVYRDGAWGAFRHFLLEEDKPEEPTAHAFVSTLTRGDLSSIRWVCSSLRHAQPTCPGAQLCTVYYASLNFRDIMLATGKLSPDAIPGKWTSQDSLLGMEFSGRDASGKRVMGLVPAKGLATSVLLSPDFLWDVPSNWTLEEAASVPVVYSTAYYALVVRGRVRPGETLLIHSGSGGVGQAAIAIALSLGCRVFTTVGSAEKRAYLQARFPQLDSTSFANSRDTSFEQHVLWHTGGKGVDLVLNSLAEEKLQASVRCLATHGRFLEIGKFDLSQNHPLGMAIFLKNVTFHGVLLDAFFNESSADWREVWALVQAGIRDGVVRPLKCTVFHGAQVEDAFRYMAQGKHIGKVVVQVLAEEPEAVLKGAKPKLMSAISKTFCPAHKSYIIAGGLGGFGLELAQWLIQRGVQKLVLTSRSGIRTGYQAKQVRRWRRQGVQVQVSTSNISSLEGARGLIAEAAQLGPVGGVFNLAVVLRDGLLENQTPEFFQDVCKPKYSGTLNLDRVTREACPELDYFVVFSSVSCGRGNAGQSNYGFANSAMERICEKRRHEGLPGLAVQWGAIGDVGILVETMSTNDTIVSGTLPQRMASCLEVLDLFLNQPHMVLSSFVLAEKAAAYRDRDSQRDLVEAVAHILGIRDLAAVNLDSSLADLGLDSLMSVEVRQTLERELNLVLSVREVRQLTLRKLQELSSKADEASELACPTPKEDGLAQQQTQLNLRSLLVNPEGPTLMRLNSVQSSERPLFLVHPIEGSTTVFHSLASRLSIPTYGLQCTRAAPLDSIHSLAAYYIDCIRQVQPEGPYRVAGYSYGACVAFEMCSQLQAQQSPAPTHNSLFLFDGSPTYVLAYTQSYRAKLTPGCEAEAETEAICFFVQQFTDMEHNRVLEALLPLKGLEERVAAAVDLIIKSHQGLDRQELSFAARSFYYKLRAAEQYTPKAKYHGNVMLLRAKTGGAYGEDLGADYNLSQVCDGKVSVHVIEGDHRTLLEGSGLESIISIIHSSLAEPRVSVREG
# procedure.summary: Fatty Acid Synthase (FASN) inhibition scintillation proximity assay
# Format: biochemical
# condition.details: read-out: Human FASN pIC50 (converted)
# Protocol: In this assay, inhibition of FASN activity is measured using ^3H-acetyl-CoA and malonyl-CoA as substrates. ^3H-Acetyl CoA is converted to ^3H-palmitate through a series of reactions by the FASN protein, which contains 7 functional domains and carries out 7 enzymatic reactions to ultimately produce ^3H-palmitate. The assay principle is based upon the fact that ^3H-acetyl-CoA is hydrophilic and the end product, ^3H-palmitate is hydrophobic. […]
property.name: IC50 (nM)

O=C(C1CC1)N1CC(CN2C(=O)C3(CC3)N=C2c2ccc(-c3nc4ccc(Cl)cc4o3)cc2F)C1; 158
COCCN1CCC2(CC1)N=C(c1ccc(-c3ccc4occc4c3)cc1)N(C[C@@H]1CCN(C(=O)C3CC3)C1)C2=O; 138
Cc1sc2ccc(-c3ccc(C4=NC5(CCN(C(C)C)CC5)C(=O)N4C[C@@H]4CCN(C(=O)C5CC5)C4)cc3)cc2c1C; 437
O=C(N1CCCC1)N1CC[C@@H](CN2C(=O)C3(CCOC3)N=C2c2ccc(-c3ccc4cccnc4c3)cc2)C1 (stereo partly shown); 851
Cn1c(-c2ccc(C3=NC4(CC4)C(=O)N3CC3CN(C(=O)C4CC4)C3)c(F)c2)nc2ccccc21; 2570
CC(O)C(=O)N1CC(CN2C(=O)C3(CCOCC3)N=C2c2ccc(-c3ccc4occc4c3)cc2)C1 (stereo not shown); 4470

[A] Cc1cc(-c2ccc3c(cnn3C)c2)ccc1C1=NC2(CC2)C(=O)N1C[C@@H]1CCN(C(=O)C2(C)CC2)C1
[B] Cc1nn(C)c2ccc(-c3ccc(C4=NC5(CC5)C(=O)N4C[C@@H]4CCN(C(=O)C5CC5)C4)cc3)cc12
Lower value for measured IC50? Options: A , B Response format: the label of the selected entry.
A
(A: 45.7 nM, B: 72.4 nM)

[I] O=C(C1CC1)N1CCC(CN2C(=O)C3(CC3)N=C2c2ccc(-c3ccc(-c4ccncc4)cc3)cc2)CC1
[II] O=C(N1CC(CN2C(=O)C3(CC3)N=C2c2ccc(-c3ccc4ccccc4c3)cc2F)C1)C1(O)CC1
// max by IC50 over [ I , II ] Mark your selection by writing its label.
I

* * *

# subject.of.test: hFASN enzyme (full length) (Homo sapiens, UniProt P49327)
# Construct: 10 μL hFASN enzyme (full length, 300 ng, purified in house); made in house
# procedure.summary: Fatty Acid Synthase (FASN) inhibition scintillation proximity assay
# Type: biochemical
# condition.details: read-out: Human FASN % inhibition @ 10 μM, 10 μM test compound
property.name: inhibition at 10 µM (%)

Solved cases (4 shown):
Cn1cnc2cc(-c3ccc(C4=NC5(CC5)C(=O)N4CC4CN(C(=O)C5(O)CC5)C4)c(F)c3)ccc21 [compound 377]; 100
Cc1nnc2ccc(-c3ccc(C4=NC5(CC5)C(=O)N4CC4CN(C(=O)C5CC5)C4)cc3)cn12 [compound 793]; 13
O=C(C1CC1)N1CC(CN2C(=O)C3(CC3)N=C2c2ccc(-c3ccc4cc[nH]c4c3)cc2)C1 [compound 299]; 101
O=C1CCc2ccc(-c3ccc(C4=NC5(CC5)C(=O)N4C[C@@H]4CCN(C(=O)C5CC5)C4)cc3)cc2N1 [compound 809]; 29

[a] COC(=O)N1CC2(C1)N=C(c1ccc(-c3ccc4c(cnn4C)c3)cc1)N(C[C@@H]1CCN(C(=O)c3nccs3)C1)C2=O [compound 923]
[b] O=C(C1CC1)N1CC[C@@H](CN2C(=O)C3(CC3)N=C2c2ccc(-c3ccc4cnc(Cl)cc4c3)cc2)C1 [compound 466]
Could you tell me which of these two has the smaller inhibition at 10 µM figure? First: a Second: b // caller expects the label of the chosen entry
a
(a: 27%, b: 87%)

* * *

# subject.of.test: hFASN enzyme (full length) (Homo sapiens)
# Construct: 10 μL hFASN enzyme (full length, 300 ng, purified in house); made in house
# procedure.summary: Fatty Acid Synthase (FASN) inhibition scintillation proximity assay
# Format: biochemical
# condition.details: read-out: Human FASN % inhibition @ 10 μM, 10 μM test compound
property.name: inhibition at 10 µM (%)

COC(=O)N1CC(CN2C(=O)C3(CCOCC3)N=C2c2ccc(-c3ccc4occc4c3)cc2)C1; 10
CS(=O)(=O)N1CC(CN2C(=O)C3(CCOCC3)N=C2c2ccc(-c3ccc4cccnc4c3)cc2)C1; 1
COC(=O)N1CC(CN2C(=O)C3(CCOC3)N=C2c2ccc(-c3ccc(-c4cnn(C)c4)cc3)cc2)C1 (centres unmarked); -2
Cn1cc(-c2ccc(-c3ccc(C4=NC5(CCNCC5)C(=O)N4CC4CN(C(=O)C5CC5)C4)cc3)cc2)cn1; 38

[a] O=C(C1CC1)N1CC(CN2C(=O)C3(CC3)N=C2c2ccc(-c3cc4ccccc4nc3O)cc2)C1
[b] Cc1sc2ccc(-c3ccc(C4=NC5(CCN(C(C)C)CC5)C(=O)N4C[C@@H]4CCN(C(=O)C5CC5)C4)cc3)cc2c1C
Identify the entry with the larger inhibition at 10 µM. Options: a and b Return value: the label identifying the chosen record.
b

[A] CN(C)c1cccc(-c2ccc(C3=NC4(CC4)C(=O)N3C[C@@H]3CCN(C(=O)C4CC4)C3)cc2)c1
[B] CN1CCN(c2ccc(-c3ccc(C4=NC5(CCCC5)C(=O)N4C[C@@H]4CCN(C(=O)C5CC5)C4)cc3)cn2)CC1
[C] Cn1cc(-c2ccc(-c3ccc(C4=NC5(CCOC5)C(=O)N4C[C@@H]4CCN(C(=O)N5CCCC5)C4)cc3)cc2)cn1 (some centres unmarked)
[D] Cc1cc(-c2cnc3c(c2)OCCN3C)ccc1C1=NC2(CCCC2)C(=O)N1C[C@@H]1CCN(C(=O)C2CC2)C1
Rank the 4 compounds: largest inhibition at 10 µM first, smallest last. Show the ranking through the labels, in the order asked for.
A, C, D, B
(A: 106%, C: 57%, D: 25%, B: -0.97%)

[A] Cc1cc(-c2ccc3cc[nH]c3c2)ccc1C1=NC2(CCCC2)C(=O)N1C[C@@H]1CCN(C(=O)C2CC2)C1
[B] Cn1ncc2cc(-c3ccc(C4=NC5(CC5)C(=O)N4C[C@@H]4CCN(C(=O)C5CC5)C4)s3)ccc21
I'd appreciate it if you could identify which of A and B has the greater inhibition at 10 µM. Kindly give the label for the entry you pick.
A
